Target: Recombinant JAK2 (Homo sapiens)
Construct: purchased Carna Biosciences
Experiment: JAK biochemical assay (LANCE Ultra TR-FRET), JAK2
Details: recombinant JAK2, TR-FRET; read-out: Biochemical Assay (μM) JAK2
IC50 by entry:
assay-endpoint: IC50

{"columns": ["compound", "observed-result"],
 "data": [
  ["O=C(C1CC1)N1CCC(C(O)(c2ccc(-n3cc(-c4ccnc5[nH]cnc45)cn3)nc2)C(F)(F)F)CC1 (stereo not shown)", "< 0.1 µM"],
  ["N#CCc1ccnc(-n2cc(-c3ccnc4[nH]cnc34)cn2)c1", "> 0.5 µM"],
  ["N#CCC1CCN(C(=O)n2cc(-c3ccnc4[nH]c(=O)[nH]c34)cn2)C1 (stereo not shown)", "> 0.5 µM"],
  ["N#CCNC(=O)c1cnc(-n2cc(-c3ccnc4[nH]cnc34)cn2)nc1", "< 0.5 µM"]
]}

----------
Molecular target: Recombinant JAK3 (Homo sapiens)
Construct: purchased Carna Biosciences
Sequence (P52333 whole entry): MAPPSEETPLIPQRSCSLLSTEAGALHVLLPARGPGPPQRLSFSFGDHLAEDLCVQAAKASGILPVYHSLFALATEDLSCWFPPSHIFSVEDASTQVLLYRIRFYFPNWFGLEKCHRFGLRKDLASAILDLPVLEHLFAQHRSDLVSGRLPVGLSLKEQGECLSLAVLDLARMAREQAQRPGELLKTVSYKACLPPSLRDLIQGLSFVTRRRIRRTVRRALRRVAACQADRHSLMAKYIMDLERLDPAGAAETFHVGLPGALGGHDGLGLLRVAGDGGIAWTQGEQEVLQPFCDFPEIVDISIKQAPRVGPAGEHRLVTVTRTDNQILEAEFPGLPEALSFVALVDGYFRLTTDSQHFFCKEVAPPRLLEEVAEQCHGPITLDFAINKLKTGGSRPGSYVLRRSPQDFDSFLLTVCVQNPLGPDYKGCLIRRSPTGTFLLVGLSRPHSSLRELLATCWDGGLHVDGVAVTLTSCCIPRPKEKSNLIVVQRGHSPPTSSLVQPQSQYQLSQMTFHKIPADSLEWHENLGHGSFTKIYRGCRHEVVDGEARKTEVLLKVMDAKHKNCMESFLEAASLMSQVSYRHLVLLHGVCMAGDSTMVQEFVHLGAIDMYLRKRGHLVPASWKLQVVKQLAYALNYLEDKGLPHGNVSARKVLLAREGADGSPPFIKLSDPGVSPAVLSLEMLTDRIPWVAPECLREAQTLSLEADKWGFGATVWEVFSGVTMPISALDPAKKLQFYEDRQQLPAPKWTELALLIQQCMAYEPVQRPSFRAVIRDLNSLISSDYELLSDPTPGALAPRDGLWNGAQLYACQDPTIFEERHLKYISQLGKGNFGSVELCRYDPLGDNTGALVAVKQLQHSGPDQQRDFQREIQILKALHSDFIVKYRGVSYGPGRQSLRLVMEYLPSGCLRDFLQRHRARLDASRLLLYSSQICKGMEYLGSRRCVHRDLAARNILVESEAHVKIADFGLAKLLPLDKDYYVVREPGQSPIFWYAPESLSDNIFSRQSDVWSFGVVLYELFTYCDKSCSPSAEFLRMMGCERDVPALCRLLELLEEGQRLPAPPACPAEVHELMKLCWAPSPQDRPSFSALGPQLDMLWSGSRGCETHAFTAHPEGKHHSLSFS
Test: JAK biochemical assay (LANCE Ultra TR-FRET), JAK3
Conditions: recombinant JAK3, TR-FRET; read-out: Biochemical Assay (μM) JAK3
Where a name gives a salt, the structure may show the parent alone.
assay-endpoint: IC50

{"columns": ["compound", "observed-result"],
 "data": [
  ["c1cc(-c2cnn(-c3ccc(CN4CCOCC4)cn3)c2)c2nc[nH]c2n1", "> 1 µM"],
  ["CS(=O)(=O)CCC(c1ccnc(-n2cc(-c3ccnc4[nH]cnc34)cn2)c1)C(F)(F)F (stereo not drawn)", "> 1 µM"],
  ["N#CCc1ccc(-n2cc(-c3ccnc4[nH]cnc34)cn2)cc1", "< 0.5 µM"],
  ["O=C(NCC(F)(F)F)n1cc(-c2ccnc3[nH]c(C4CC4)nc23)cn1", "> 1 µM"],
  ["OC(c1ccc(-n2cc(-c3ccnc4[nH]cnc34)cn2)nc1)(C1CCCCC1)C(F)(F)F (stereo not drawn)", "> 0.1 µM"],
  ["N#CCc1ccc(-n2cc(-c3ccnc4[nH]cnc34)cn2)nc1 [Example 1082, hydrochloride]", "< 0.5 µM"],
  ["CNCCC(c1ccc(-n2cc(-c3ccnc4[nH]cnc34)cn2)nc1)C(F)(F)F (stereo not drawn) [Example 1200]", "0.009 µM"],
  ["N#CCc1ccc(-n2cc(-c3ccnc4[nH]cnc34)cn2)nc1 [Example 1078]", "0.07 µM"],
  ["N#CC1CN(C(=O)n2cc(-c3ccnc4[nH]c(=O)[nH]c34)cn2)C1", "< 0.5 µM"],
  ["O=C(NCCC(c1ccc(-n2cc(-c3ccnc4[nH]cnc34)cn2)nc1)C(F)(F)F)C1CCCC1 (stereo not drawn)", "> 0.1 µM"],
  ["CN1CCN(CCC(c2ccc(-n3cc(-c4ccnc5[nH]cnc45)cn3)nc2)C(F)(F)F)CC1 (stereo not drawn)", "< 0.1 µM"],
  ["O=C(NC1CC1)NC(c1ccc(-n2cc(-c3ccnc4[nH]cnc34)cn2)nc1)C(F)(F)F (stereo not drawn)", "< 0.1 µM"],
  ["CNC(=O)CCC(c1ccc(-n2cc(-c3ccnc4[nH]cnc34)cn2)nc1)C(F)(F)F (stereo not drawn)", "< 0.1 µM"],
  ["N#CCC(c1ccc(-n2cc(-c3ccnc4[nH]cnc34)cn2)nc1)C(F)(F)F (stereo not drawn)", "> 0.1 µM"],
  ["N#CC(NC(=O)n1cc(-c2ccnc3[nH]c(=O)[nH]c23)cn1)C1CC1 (stereo not drawn)", "0.123 µM"],
  ["O=C(NCC(F)(F)F)n1ccc(-c2ccnc3[nH]c(=O)[nH]c23)c1", "> 1 µM"],
  ["CC1CN(C(=O)n2cc(-c3ccnc4[nH]cnc34)cn2)CC1C#N (stereo not drawn)", "> 1 µM"],
  ["N#CCC(NC(=O)n1cc(-c2ccnc3[nH]c(=O)[nH]c23)cn1)C(F)(F)F (stereo not drawn)", "< 0.5 µM"],
  ["N#C[C@H](NC(=O)n1cc(-c2ccnc3[nH]c(=O)[nH]c23)cn1)C1CC1", "> 1 µM"],
  ["CC(C)NCC[C@H](c1ccc(-n2cc(-c3ccnc4[nH]cnc34)cn2)nc1)C(F)(F)F", "0.005 µM"],
  ["N#CC1CCN(C(=O)n2cc(-c3ccnc4[nH]c(=O)[nH]c34)cn2)C1 (stereo not drawn)", "> 1 µM"],
  ["CS(=O)(=O)CCC(F)c1ccc(-n2cc(-c3ccnc4[nH]cnc34)cn2)nc1 (stereo not drawn)", "> 0.5 µM"],
  ["O=C(NCC(F)(F)F)c1ccc(-c2ccnc3[nH]c(=O)[nH]c23)cc1", "> 10 µM"],
  ["N#CCNC(=O)n1cc(-c2ccnc3[nH]c(=O)[nH]c23)cn1 [Example 1027]", "0.146 µM"],
  ["O=C(NCC(F)(F)F)N1CCN(c2ccnc3[nH]c(=O)[nH]c23)CC1", "> 1 µM"],
  ["OC(CN1CCOCC1)(c1ccc(-n2cc(-c3ccnc4[nH]cnc34)cn2)nc1)C(F)(F)F (stereo not drawn)", "< 0.1 µM"],
  ["O=C(CCC(F)(F)F)n1cc(-c2ccnc3[nH]c(=O)[nH]c23)cn1", "> 1 µM"]
]}

----------
Biological target: Recombinant JAK2 (Homo sapiens, UniProt O60674)
Construct: purchased Carna Biosciences
Sequence (O60674 whole entry): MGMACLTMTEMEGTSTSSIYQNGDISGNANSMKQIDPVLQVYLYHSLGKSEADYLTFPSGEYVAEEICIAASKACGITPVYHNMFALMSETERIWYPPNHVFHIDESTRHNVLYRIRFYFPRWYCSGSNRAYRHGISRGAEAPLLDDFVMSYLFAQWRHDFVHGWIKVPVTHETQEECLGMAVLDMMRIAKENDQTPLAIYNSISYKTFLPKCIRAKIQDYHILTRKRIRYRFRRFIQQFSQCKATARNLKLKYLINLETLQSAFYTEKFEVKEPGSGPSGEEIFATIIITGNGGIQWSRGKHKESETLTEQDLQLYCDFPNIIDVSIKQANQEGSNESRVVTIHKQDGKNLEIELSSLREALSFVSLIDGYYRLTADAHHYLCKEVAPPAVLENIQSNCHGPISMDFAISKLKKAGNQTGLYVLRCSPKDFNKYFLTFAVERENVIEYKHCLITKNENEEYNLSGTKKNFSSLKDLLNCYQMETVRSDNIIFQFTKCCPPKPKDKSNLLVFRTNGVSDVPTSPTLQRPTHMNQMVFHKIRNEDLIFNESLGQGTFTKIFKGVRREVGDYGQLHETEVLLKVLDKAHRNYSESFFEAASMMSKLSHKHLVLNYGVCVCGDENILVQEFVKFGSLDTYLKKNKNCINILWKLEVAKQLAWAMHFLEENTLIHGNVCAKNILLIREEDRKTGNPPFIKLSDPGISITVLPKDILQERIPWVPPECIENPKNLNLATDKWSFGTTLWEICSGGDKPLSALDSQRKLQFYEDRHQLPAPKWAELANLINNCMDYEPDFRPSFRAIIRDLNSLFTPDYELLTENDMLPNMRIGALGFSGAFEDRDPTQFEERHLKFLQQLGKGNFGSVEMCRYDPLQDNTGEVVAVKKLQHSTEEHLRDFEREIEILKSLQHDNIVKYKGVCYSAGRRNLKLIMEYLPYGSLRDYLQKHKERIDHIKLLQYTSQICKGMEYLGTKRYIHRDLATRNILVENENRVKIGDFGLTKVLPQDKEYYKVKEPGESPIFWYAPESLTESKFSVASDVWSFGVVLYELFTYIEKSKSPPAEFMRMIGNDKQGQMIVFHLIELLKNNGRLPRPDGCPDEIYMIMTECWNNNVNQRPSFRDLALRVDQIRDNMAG
Test: JAK biochemical assay (LANCE Ultra TR-FRET), JAK2
Details: recombinant JAK2, TR-FRET; read-out: Biochemical Assay (μM) JAK2
Structures can show the parent of a compound that is named as a salt.
# IC50 per entry
assay-endpoint: IC50

{"columns": ["compound", "observed-result"],
 "data": [
  ["O=C(NC(C1CCCC1)C(F)(F)F)n1cc(-c2ccnc3[nH]c(=O)[nH]c23)cn1 (stereo not shown)", "> 1 µM"],
  ["FC(F)(F)C(c1ccc(-n2cc(-c3ccnc4[nH]cnc34)cn2)nc1)C1COC1 (stereo not shown)", "< 0.1 µM"],
  ["OC(Cc1ccc(-n2cc(-c3ccnc4[nH]cnc34)cn2)nc1)C(F)(F)F (stereo not shown)", "> 0.5 µM"],
  ["CS(=O)(=O)N1CCC(C(O)c2ccc(-n3cc(-c4ccnc5[nH]cnc45)cn3)nc2)CC1 (stereo not shown)", "> 1 µM"],
  ["CC(C)C(C#N)NC(=O)n1cc(-c2ccnc3[nH]c(=O)[nH]c23)cn1 (stereo not shown)", "< 0.5 µM"],
  ["NS(=O)(=O)CCC(c1ccc(-n2cc(-c3ccnc4[nH]cnc34)cn2)nc1)C(F)(F)F (stereo not shown)", "< 0.1 µM"],
  ["CC(C)(CO)C(c1ccc(-n2cc(-c3ccnc4[nH]cnc34)cn2)nc1)C(F)(F)F (stereo not shown)", "> 0.5 µM"],
  ["N#CC1CN(C(=O)n2cc(-c3ccnc4[nH]c(=O)[nH]c34)cn2)C1", "< 0.5 µM"],
  ["CS(=O)(=O)CCC(C#N)c1ccc(-n2cc(-c3ccnc4[nH]cnc34)cn2)nc1 (stereo not shown)", "> 0.5 µM"],
  ["O=C(NCC(F)(F)F)C(c1ccc(-n2cc(-c3ccnc4[nH]cnc34)cn2)nc1)C1CC1 (stereo not shown)", "0.3 µM"],
  ["N#CCc1ccc(-n2cc(-c3ccnc4[nH]cnc34)cn2)nc1 [Example 1078]", "0.108 µM"],
  ["O=C(Cc1ccc(-n2cc(-c3ccnc4[nH]cnc34)cn2)nc1)NCC(F)(F)F", "> 1 µM"],
  ["CC(C)N1CCC([C@](O)(c2ccc(-n3cc(-c4ccnc5[nH]cnc45)cn3)cc2)C(F)(F)F)C1 (stereo partly shown)", "< 0.1 µM"],
  ["CS(=O)(=O)CCC(c1ccc(-n2cc(-c3ccnc4[nH]cnc34)cn2)cc1)C(F)(F)F (stereo not shown)", "< 0.1 µM"],
  ["CC(C)OC(c1ccc(-n2cc(-c3ccnc4[nH]cnc34)cn2)nc1)C(F)(F)F (stereo not shown)", "> 1 µM"],
  ["N#CCc1ccc(-n2cc(-c3ccnc4[nH]cnc34)cn2)nc1 [Example 1082, hydrochloride]", "< 0.5 µM"],
  ["COC(c1ccc(-n2cc(-c3ccnc4[nH]cnc34)cn2)nc1)(C1CCN(C)CC1)C(F)(F)F (stereo not shown)", "> 0.1 µM"],
  ["Cc1cc(S(C)(=O)=O)ccc1NC(=O)N1CCN(c2ccnc3[nH]c(=O)[nH]c23)CC1", "> 1 µM"],
  ["CC(NC(=O)N1CCN(c2ccnc3[nH]c(=O)[nH]c23)CC1)C(F)(F)F (stereo not shown)", "> 1 µM"],
  ["CS(=O)(=O)CCC(c1ccc(-n2cc(-c3ccnc4[nH]cnc34)cn2)nc1)C1COC1 (stereo not shown)", "> 0.5 µM"],
  ["N#CC(NC(=O)n1cc(-c2ccnc3[nH]cnc23)cn1)c1ccccc1 (stereo not shown)", "< 0.5 µM"],
  ["CCN1CCC([C@@](O)(c2ccc(-n3cc(-c4ccnc5[nH]cnc45)cn3)nc2)C(F)(F)F)C1 (stereo partly shown)", "0.023 µM"],
  ["N#CCC(NC(=O)n1cc(-c2ccnc3[nH]c(=O)[nH]c23)cn1)C1CCOCC1 (stereo not shown)", "< 0.5 µM"],
  ["O=S1(=O)CCN(Cc2ccc(-n3cc(-c4ccnc5[nH]cnc45)cn3)nc2)CC1", "> 0.5 µM"],
  ["N#CCc1ccc(-n2cc(-c3ccnc4[nH]cnc34)cn2)c(F)c1", "> 0.5 µM"]
]}
